tested on: MDA-N; test: NCI tumour cell line growth inhibition, 48 h
Active and inactive are the calls of the source. Cut-off read from the data, not from the text of the source: active = GI50 up to about 1.1 µM and inactive = higher.
Use one of these outcomes when replying: label 1 for active, label 0 for inactive

Here are 5 compounds together with their reported answers.
Cc1cc(=O)oc2cc(OC(=O)Nc3ccc(Cl)c(Cl)c3)ccc12: label 0
Cc1ccc(S(=O)(=O)N2CCN(CCO)CCN(S(=O)(=O)c3ccc(C)cc3)CCN(CCO)CC2)cc1: label 0
Cc1cc(S(=O)(=O)/N=C(\NN)NCC(=O)NN)c(S)cc1Cl: label 0
N#CCC(=O)N/N=C\C(O)C(O)C(O)C(O)CO (stereo unspecified): label 0
C/C=C/[C@H]1O[C@@](O)([C@@H](C)[C@H](O)[C@H](C)[C@H]2OC(=O)/C(OC)=C/C(C)=C/[C@@H](C)[C@@H](O)[C@@H](CC)[C@@H](O)[C@H](C)C/C(C)=C/C=C/[C@@H]2OC)C[C@H](OC2CC(O)C(O)C(C)O2)[C@@H]1C (stereo partly specified): label 1

Incoming: What did this assay record as the result for Cc1cnoc1/N=C1\C=C(O)C(=O)c2ccccc21 ?
Outgoing: label 0

Incoming: Further, for O=[N+]([O-])C(=C(Sc1ccccc1)Sc1ccccc1)C(Cl)=C(Cl)Cl ?
Outgoing: label 1

Incoming: Further, for O=C(CCCN1CCC2(CC1)CC(c1ccccc1)OC2=O)c1ccc(F)cc1 (stereo unspecified) ?
Outgoing: label 0

Incoming: Further, for Nc1ncc(Cc2ccc3c(c2)OCO3)c(N)n1 ?
Outgoing: label 0

Incoming: Further, for NCCNc1ccc(NCCN)c2c1C(=O)c1c(O)ccc(O)c1C2=O ?
Outgoing: label 0

Incoming: Further, for COC(=O)c1cc(C)ccc1C1CN=NC12Cc1ccc(C)cc1C2=O (stereo unspecified) ?
Outgoing: label 0
